measured-target: SGK3 (human) (UniProt Q96BR1)
Sequence (Q96BR1 whole entry, looked up): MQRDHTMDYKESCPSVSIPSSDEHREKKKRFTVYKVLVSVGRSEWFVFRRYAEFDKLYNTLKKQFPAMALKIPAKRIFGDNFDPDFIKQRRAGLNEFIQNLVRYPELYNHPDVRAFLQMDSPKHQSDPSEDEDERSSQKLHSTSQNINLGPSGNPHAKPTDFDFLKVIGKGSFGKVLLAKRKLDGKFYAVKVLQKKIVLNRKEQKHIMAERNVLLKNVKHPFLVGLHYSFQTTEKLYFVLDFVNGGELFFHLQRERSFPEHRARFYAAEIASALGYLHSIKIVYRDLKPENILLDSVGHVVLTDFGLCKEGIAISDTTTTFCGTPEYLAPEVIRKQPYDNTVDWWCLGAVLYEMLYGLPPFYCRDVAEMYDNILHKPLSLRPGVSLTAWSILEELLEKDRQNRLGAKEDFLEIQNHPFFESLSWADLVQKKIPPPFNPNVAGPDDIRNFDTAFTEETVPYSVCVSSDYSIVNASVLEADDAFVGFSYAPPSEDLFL
assay-details: radiometric filter-binding kinase assay, Kinase HotSpot
condition-info: compound 0.5 µM; ATP 10 µM
experimental-endpoint: residual activity (%)
Note: unit % is implicit; provide only the numeric part.

Please tell me the measured residual activity for CCN(CC)CCNC(=O)c1c(C)[nH]c(/C=C2\C(=O)Nc3ccc(F)cc32)c1C ; system: SGK3 (human) (UniProt Q96BR1).
101

Please tell me the measured residual activity for Cc1ccc(NC2=CC(=O)c3sc(C)nc3C2=O)cc1 ; system: SGK3 (human) (UniProt Q96BR1).
95.2

Please tell me the measured residual activity for Cc1ccc(S(=O)(=O)/C=C/C#N)cc1 ; system: SGK3 (human) (UniProt Q96BR1).
108

Please tell me the measured residual activity for O=C1NC(=O)/C(=C/c2ccc3c(c2)OC(F)(F)O3)S1 ; system: SGK3 (human) (UniProt Q96BR1).
94.7

Please tell me the measured residual activity for N#CC(C#N)=C(N)/C(C#N)=C/c1ccc(O)cc1 ; system: SGK3 (human) (UniProt Q96BR1).
103

Please tell me the measured residual activity for O=C1NC(=O)C(c2cn(CCCn3ccnc3)c3ccccc23)=C1Nc1ccccc1 ; system: SGK3 (human) (UniProt Q96BR1).
89.9

---

measured-target: PLK3 (human)
assay-details: radiometric filter-binding kinase assay, Kinase HotSpot
condition-info: compound 0.5 µM; ATP 10 µM
experimental-endpoint: residual activity
Report the figure along with its unit, number first.

Check the records and state residual activity for Nc1ncnc2c1c(-c1ccc(Oc3ccccc3)cc1)cn2C1CCCC1
105%

Check the records and state residual activity for CCC(=O)Nc1ccc2ncnc(Nc3cccc(Br)c3)c2c1
93.2%

Check the records and state residual activity for O=c1cc(N2CCOCC2)oc2c1ccc1ccccc12
64%

Check the records and state residual activity for CCN(CC)CCNC(=O)c1c(C)[nH]c(/C=C2\C(=O)Nc3ccc(Cl)cc32)c1C
89.8%

Check the records and state residual activity for CC#CC(=O)Nc1cc2c(Nc3ccc(F)c(Cl)c3)ncnc2cn1
100%

Check the records and state residual activity for CO[C@H]1CC2CC[C@@H](C)[C@@](O)(O2)C(=O)C(=O)N2CCCC[C@H]2C(=O)OC([C@H](C)C[C@@H]2CC[C@@H](O)[C@H](OC)C2)CC(=O)[C@H](C)/C=C(\C)[C@@H](O)[C@@H](OC)C(=O)[C@H](C)C[C@H](C)/C=C/C=C/C=C/1C (stereo partly specified)
96.2%

Check the records and state residual activity for Cc1ccc(NC2=CC(=O)c3sc(C)nc3C2=O)cc1
94.5%

Check the records and state residual activity for COc1ccc2c(c[n+](C)c3c4cc5c(cc4ccc23)OCO5)c1OC
100%

Check the records and state residual activity for CNC(=O)c1cc(Oc2ccc(NC(=O)Nc3ccc(Cl)c(C(F)(F)F)c3)cc2)ccn1
99.3%

Check the records and state residual activity for Cc1ccc(Nc2nccc(N(C)c3ccc4c(C)n(C)nc4c3)n2)cc1S(N)(=O)=O
101%

Check the records and state residual activity for O=S(=O)(c1cccc2cnccc12)N1CCCNCC1
102%

Check the records and state residual activity for Oc1cccc(-c2nc(N3CCOCC3)c3oc4ncccc4c3n2)c1
94.6%

Check the records and state residual activity for Nc1cccc(-c2cc3c(Oc4cccc(O)c4)ncnc3[nH]2)c1
95.7%

Check the records and state residual activity for Cc1[nH]c(/C=C2\C(=O)Nc3ccc(S(=O)(=O)N(C)c4cccc(Cl)c4)cc32)c(C)c1C(=O)N1CCN(C)CC1
95%

Check the records and state residual activity for O=C1Nc2ccc(Cl)cc2/C1=C/c1cc(Cl)c(O)c(Cl)c1
98.2%

Check the records and state residual activity for Cc1ccc(S(=O)(=O)/C=C/C#N)cc1
97.1%

Check the records and state residual activity for Nc1ncnc2[nH]nc(Nc3ccc(F)cc3)c12
98%

Check the records and state residual activity for CC(C)N(CCC(=O)c1ccc2ccccc2c1)Cc1ccccc1
105%

Check the records and state residual activity for c1ccc(-c2n[nH]cc2-c2ccnc3ccccc23)nc1
91.7%

Check the records and state residual activity for CC(=O)c1ccc(N2CCOCC2)cc1O
98.1%

Check the records and state residual activity for COc1ccc(COc2ccc(Cc3cnc(N)nc3N)cc2OC)cc1
95.9%

Check the records and state residual activity for O=C1NC(=O)c2c1c1c3ccccc3n3c1c1c2c2ccccc2n1C1CCC3O1
52.5%

Check the records and state residual activity for CCN(CC)C(=O)c1ccc(Nc2nc(OCC3CCCCC3)c3nc[nH]c3n2)cc1
98.1%

Check the records and state residual activity for CCOC(=O)c1c(C)[nH]c(/C=C2\C(=O)Nc3ccccc32)c1C
97.5%

Check the records and state residual activity for CC[n+]1c(/C=C/N(C)c2ccccc2)n(-c2ccccc2)c2ccc(-c3nc4ccccc4s3)cc21
104%

Check the records and state residual activity for c1ccc(-c2n[nH]c3c2oc2ccccc23)cc1
99.2%

Check the records and state residual activity for N#CC(C#N)=C(N)/C(C#N)=C/c1ccc(O)cc1
63.6%

Check the records and state residual activity for O=C(Nc1cccc(Nc2nccc(Nc3cccc(C(F)(F)F)c3)n2)c1)C1CC1
90.2%

Check the records and state residual activity for CNc1cc2c(Nc3cccc(Br)c3)ncnc2cn1
96.4%

Check the records and state residual activity for O=C1NC(=O)C(c2cn(CCCn3ccnc3)c3ccccc23)=C1Nc1ccccc1
99.8%

Check the records and state residual activity for N#C/C(=C(/N)Sc1ccc(N)cc1)c1ccccc1C(F)(F)F
96.9%

Check the records and state residual activity for COc1cc2ncnc(Nc3cccc(Cl)c3)c2cc1OC
92.3%

Check the records and state residual activity for CCCC(=O)Oc1ccc2[nH]c(C(=O)c3cc4ccccc4[nH]3)cc2c1
98.4%

Check the records and state residual activity for CCN(CC)CCNC(=O)c1c(C)[nH]c(/C=C2\C(=O)Nc3ccc(F)cc32)c1C
96.5%

Check the records and state residual activity for O=C1NC(=O)/C(=C/c2ccc3c(c2)OC(F)(F)O3)S1
92.4%

Check the records and state residual activity for Nc1ccc2ncnc(NCCc3ccc(Oc4ccccc4)cc3)c2c1
98.7%

---

measured-target: FYN (human) (UniProt P06241)
Sequence (P06241 whole entry, looked up): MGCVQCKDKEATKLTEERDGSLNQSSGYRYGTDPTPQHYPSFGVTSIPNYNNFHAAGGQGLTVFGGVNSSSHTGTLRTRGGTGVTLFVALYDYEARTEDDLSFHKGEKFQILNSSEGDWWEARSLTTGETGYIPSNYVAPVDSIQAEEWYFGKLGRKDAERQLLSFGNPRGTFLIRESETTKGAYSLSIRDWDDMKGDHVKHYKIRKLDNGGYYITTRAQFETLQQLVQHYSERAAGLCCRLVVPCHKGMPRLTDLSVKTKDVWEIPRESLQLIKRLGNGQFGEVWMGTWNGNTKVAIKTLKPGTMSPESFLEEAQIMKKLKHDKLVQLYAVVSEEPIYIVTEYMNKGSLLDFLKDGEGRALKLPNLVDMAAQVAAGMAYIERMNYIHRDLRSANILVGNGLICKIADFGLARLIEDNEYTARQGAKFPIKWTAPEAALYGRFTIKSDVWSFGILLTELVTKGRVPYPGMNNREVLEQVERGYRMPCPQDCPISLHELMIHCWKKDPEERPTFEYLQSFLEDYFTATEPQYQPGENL
assay-details: radiometric filter-binding kinase assay, Kinase HotSpot
condition-info: compound 0.5 µM; ATP 10 µM
I'd appreciate it if you could supply residual activity values for the items below.
Note: unit % is implicit; provide only the numeric part.

Please tell me the measured residual activity for N#CC(C#N)=C(N)/C(C#N)=C/c1ccc(O)cc1 ; system: FYN (human) (UniProt P06241).
98.4

Please tell me the measured residual activity for Cc1ccc(NC2=CC(=O)c3sc(C)nc3C2=O)cc1 ; system: FYN (human) (UniProt P06241).
95.6

Please tell me the measured residual activity for Cc1[nH]c(/C=C2\C(=O)Nc3ccc(S(=O)(=O)N(C)c4cccc(Cl)c4)cc32)c(C)c1C(=O)N1CCN(C)CC1 ; system: FYN (human) (UniProt P06241).
67.1

Please tell me the measured residual activity for Cc1ccc(S(=O)(=O)/C=C/C#N)cc1 ; system: FYN (human) (UniProt P06241).
95.4

Please tell me the measured residual activity for CC#CC(=O)Nc1cc2c(Nc3ccc(F)c(Cl)c3)ncnc2cn1 ; system: FYN (human) (UniProt P06241).
95.8

Please tell me the measured residual activity for O=S(=O)(c1cccc2cnccc12)N1CCCNCC1 ; system: FYN (human) (UniProt P06241).
106

Please tell me the measured residual activity for CO[C@H]1CC2CC[C@@H](C)[C@@](O)(O2)C(=O)C(=O)N2CCCC[C@H]2C(=O)OC([C@H](C)C[C@@H]2CC[C@@H](O)[C@H](OC)C2)CC(=O)[C@H](C)/C=C(\C)[C@@H](O)[C@@H](OC)C(=O)[C@H](C)C[C@H](C)/C=C/C=C/C=C/1C (some centres undefined) ; system: FYN (human) (UniProt P06241).
109

Please tell me the measured residual activity for O=C1NC(=O)/C(=C/c2ccc3c(c2)OC(F)(F)O3)S1 ; system: FYN (human) (UniProt P06241).
96

Please tell me the measured residual activity for CNc1cc2c(Nc3cccc(Br)c3)ncnc2cn1 ; system: FYN (human) (UniProt P06241).
91.7

---

measured-target: STK11 (human)
assay-details: radiometric filter-binding kinase assay, Kinase HotSpot
condition-info: compound 0.5 µM; ATP 10 µM
experimental-endpoint: residual activity (%)
Note: unit % is implicit; provide only the numeric part.

Please tell me the measured residual activity for O=C1Nc2ccc(Cl)cc2/C1=C/c1cc(Cl)c(O)c(Cl)c1 ; system: STK11 (human).
93.1

Please tell me the measured residual activity for COc1ccc(COc2ccc(Cc3cnc(N)nc3N)cc2OC)cc1 ; system: STK11 (human).
103

Please tell me the measured residual activity for Nc1ncnc2[nH]nc(Nc3ccc(F)cc3)c12 ; system: STK11 (human).
97.1

Please tell me the measured residual activity for CC[n+]1c(/C=C/N(C)c2ccccc2)n(-c2ccccc2)c2ccc(-c3nc4ccccc4s3)cc21 ; system: STK11 (human).
93.1

Please tell me the measured residual activity for N#C/C(=C(/N)Sc1ccc(N)cc1)c1ccccc1C(F)(F)F ; system: STK11 (human).
102

Please tell me the measured residual activity for Nc1ncnc2c1c(-c1ccc(Oc3ccccc3)cc1)cn2C1CCCC1 ; system: STK11 (human).
101
